Entry source: patent US20230083012A1

# System: HBV
# test: Anti-HBV activity in HepG2.2.15 cells (HBV DNA in culture medium by qPCR)
# Type: cell-based
# measurementParameters: Hepatitis B virus, HepG2.2.15, 144 h, HepG2.2.15 cells, 6 days treatment, HBV DNA in culture medium quantified by real-time PCR; read-out: EC50
Labelling field: enter Yes if recorded EC50 is less than 50 nM. Enter No if it equals or exceeds that cut-off.

- CCOC(=O)C1=C(CN2CC(F)(F)[C@@H]3CN(C[C@H](CC)C(=O)O)C(=O)[C@@H]32)NC(c2nccs2)=N[C@H]1c1cccc(F)c1C (single isomer, unassigned) [Compound 183B]: Yes
- COC(=O)C1=C(CN2CC(F)(F)[C@@H]3[C@H]2CON3CCC(C)(C)C(=O)O)NC(c2nccs2)=N[C@H]1c1ccc(F)c(F)c1Cl (single isomer, unassigned): Yes
- CCOC(=O)C1=C(CN2CC(F)(F)[C@@H]3CN(S(=O)(=O)[C@H]4C[C@@](C)(C(=O)O)C4)C[C@@H]32)NC(c2nccs2)=N[C@H]1c1cccc(F)c1C (single isomer, unassigned) [Compound 205B]: No
- CCOC(=O)C1=C(CN2CC(F)(F)[C@H]3[C@@H]2CCN3CC(=O)NS(C)(=O)=O)NC(c2nccs2)=N[C@H]1c1cccc(F)c1C (single isomer, unassigned): Yes
- CCOC(=O)C1=C(CN2CC(F)(F)[C@@H]3[C@H]2CON3CC(C)(C)C(=O)O)NC(c2nccs2)=N[C@H]1c1cccc(F)c1C (single isomer, unassigned): Yes
- CCOC(=O)C1=C(CN2CC(F)(F)[C@H]3CN(C[C@H](C)C(=O)O)C[C@H]32)NC(c2nccs2)=N[C@H]1c1cccc(F)c1C (single isomer, unassigned) [Compound 15F]: Yes
- CCOC(=O)C1=C(CN2CC(F)(F)[C@@H]3CN(C(=O)NS(C)(=O)=O)C[C@@H]32)NC(c2nccs2)=N[C@H]1c1cccc(F)c1C (single isomer, unassigned): No
- CCOC(=O)C1=C(CN2CC(F)(F)[C@H]3[C@@H]2CCN3CC(=O)O)NC(c2nccs2)=N[C@H]1c1cccc(F)c1C (single isomer, unassigned): No
- CCOC(=O)C1=C(CN2CC(F)(F)[C@@H]3[C@H]2CN(C(C)=O)N3CCC(C)(C)C(=O)O)NC(c2nccs2)=N[C@H]1c1ccc(F)c(F)c1F (single isomer, unassigned) [Compound 83A]: Yes

----------
Quick reference for EC50 among some molecules
# Test system: HBV
# test: Anti-HBV activity in HepG2.2.15 cells (HBV DNA in culture medium by qPCR)
# Assay type: cell-based
# measurementParameters: Hepatitis B virus, HepG2.2.15, 144 h, HepG2.2.15 cells, 6 days treatment, HBV DNA in culture medium quantified by real-time PCR; read-out: EC50
experimentalEndpoint: EC50

• CCOC(=O)C1=C(CN2CC(F)(F)[C@@H]3[C@H]2CN(C(=O)C2(F)CC2)N3CCC(C)(C)C(=O)O)NC(c2nccs2)=N[C@H]1c1cccc(F)c1C (single isomer, unassigned) = 69 nM
• CCOC(=O)C1=C(CN2CC(F)C3C(=O)N(CC(C)(C)C(=O)O)CC32)NC(c2nccs2)=N[C@H]1c1cccc(F)c1C (stereo partly shown) = 8.9 nM
• COC(=O)C1=C(CN2CC(F)(F)[C@@H]3[C@H]2CON3CCC(C)(C)C(=O)O)NC(c2nccs2)=N[C@H]1c1cccc(F)c1C (single isomer, unassigned) = 14 nM
• Cc1c(F)cccc1[C@@H]1N=C(c2nccs2)NC(CN2CC(F)(F)[C@H]3[C@@H]2CCN3CCC(C)(C)C(=O)O)=C1C(=O)OC(C)C (single isomer, unassigned) = 61.8 nM
• COC(=O)C1=C(CN2CC(F)(F)[C@@H]3[C@H]2CON3CCC(C)(C)C(=O)O)NC(c2nccs2)=N[C@H]1c1ccc(F)c(F)c1C (single isomer, unassigned) = 8 nM
• COC(=O)C1=C(CN2CC(F)(F)[C@H]3[C@@H]2CCN3CCC(C)(C)C(=O)O)NC(c2nccs2)=N[C@H]1c1cccc(F)c1Cl (single isomer, unassigned) = 0.8 nM
• CCOC(=O)C1=C(CN2CC(F)(F)[C@@H]3CN(CC4(CC(=O)O)CC4)C[C@@H]32)NC(c2nccs2)=N[C@H]1c1cccc(F)c1C (single isomer, unassigned) = 105 nM
• COC(=O)C1=C(CN2CC(F)(F)[C@H]3[C@@H]2CCN3CCC(C)(C)C(=O)O)NC(c2ncoc2C)=N[C@H]1c1ccc(F)cc1Cl (single isomer, unassigned) = 9.3 nM
• CCOC(=O)C1=C(CN2CC(F)(F)[C@@H]3CN([C@H]4C[C@@H](C(=O)O)C4)C(=O)[C@@H]32)NC(c2nccs2)=N[C@H]1c1cccc(F)c1C (single isomer, unassigned) = 16.6 nM
• CCOC(=O)C1=C(CN2CC(F)(F)C3C(=O)N(C[C@H](C)C(=O)O)C[C@@H]32)NC(c2nccs2)=N[C@H]1c1cccc(F)c1C (single isomer, unassigned) [Compound 181B] = 9.5 nM

----------
# Tested on: HBV
# test: Anti-HBV activity in HepG2.2.15 cells (HBV DNA in culture medium by qPCR)
# Format: cell-based
# measurementParameters: Hepatitis B virus, HepG2.2.15, 144 h, HepG2.2.15 cells, 6 days treatment, HBV DNA in culture medium quantified by real-time PCR; read-out: EC50
pEC50: −log10 of the molar value.
experimentalEndpoint: pEC50

* CCOC(=O)C1=C(CN2CC(F)(F)[C@@H]3[C@H]2CON3CCC(C)(C)C(=O)O)NC(c2nccs2)=N[C@H]1c1ccc(F)c(F)c1Cl (single isomer, unassigned) [Compound 163] | 8.70
* COC(=O)C1=C(CN2CC(F)(F)[C@H]3[C@@H]2CCN3C[C@H](C)C(=O)O)NC(c2nccs2)=N[C@H]1c1cccc(F)c1Cl (single isomer, unassigned) [Compound 132B] | 7.97
* CCOC(=O)C1=C(CN2CC(F)(F)C3C(=O)N(C[C@@H](CC)C(=O)O)C[C@@H]32)NC(c2nccs2)=N[C@H]1c1cccc(F)c1C (single isomer, unassigned) [Compound 182A] | 7.62
* CCOC(=O)C1=C(CN2CC(F)(F)C3CN(CC(C)(C)C(=O)O)CC32)NC(c2nccs2)=N[C@H]1c1cccc(F)c1C (stereo in doubt) [Compound 12] | 7.49
* CCOC(=O)C1=C(CN2CC(F)(F)[C@H]3[C@@H]2CC(C)N3CCC(C)(C)C(=O)O)NC(c2nccs2)=N[C@H]1c1cccc(F)c1C (single isomer, unassigned) [Compound 153] | 8.22
* CCOC(=O)C1=C(CN2CC(F)(F)C3C2CCN3CC(C)(C)C(=O)O)NC(c2nccs2)=N[C@H]1c1cccc(F)c1C (some centres unmarked) [Compound 1] | 7.97
* CCOC(=O)C1=C(CN2CC(F)(F)C3CN(C(=O)C(C)(C)C(=O)O)CC32)NC(c2nccs2)=N[C@H]1c1cccc(F)c1C (stereo in doubt) [Compound 9] | 7.38
* CCOC(=O)C1=C(CN2CC(F)(F)[C@@H]3CN(CCC(C)(C)C(=O)O)C[C@@H]32)NC(c2nccs2)=N[C@H]1c1cccc(F)c1C (single isomer, unassigned) [Compound 17B] | 6.91
* COC(=O)C1=C(CN2CC(F)(F)[C@@H]3CN(CC(C)(C)C(=O)O)C[C@@H]32)NC(c2nccs2)=N[C@H]1c1ccc(F)cc1Cl (single isomer, unassigned) [Compound 20B] | 7.40
* CCOC(=O)C1=C(CN2CC(F)(F)[C@H]3[C@@H]2CCN3[C@H](C)CC(C)(C)C(=O)O)NC(c2nccs2)=N[C@H]1c1cccc(F)c1C (single isomer, unassigned) [Compound 105A] | 7.98
* CCOC(=O)C1=C(CN2CC(F)(F)[C@H]3[C@@H]2CCN3C2CCC(C(=O)O)CC2)NC(c2nccs2)=N[C@H]1c1cccc(F)c1C (single isomer, unassigned) [Compound 104B] | 8.10
* CCOC(=O)C1=C(CN2CC(F)(F)[C@H]3[C@@H]2CCN3S(C)(=O)=O)NC(c2nccs2)=N[C@H]1c1cccc(F)c1C (single isomer, unassigned) [Compound 62] | 7.90
* CCOC(=O)C1=C(CN2CC(F)(F)[C@H]3[C@@H]2CCN3[C@H]2CC[C@@H](C(=O)O)CC2)NC(c2nccs2)=N[C@H]1c1cccc(F)c1C (single isomer, unassigned) [Compound 104A] | 7.98
* CCOC(=O)C1=C(CN2CC(F)(F)[C@H]3[C@@H]2CN(CC(C)(C)C(=O)O)N3C)NC(c2nccs2)=N[C@H]1c1cccc(F)c1C (relative stereo) [Compound 87] | 7.85
* CCOC(=O)C1=C(CN2CC(F)(F)[C@@H]3[C@H]2CON3CCC(C)(C)C(=O)O)NC(c2nc(C)cs2)=N[C@H]1c1cccc(F)c1C (single isomer, unassigned) [Compound 165] | 8.10
* [2H]C1([2H])C[C@H]2[C@@H](N1CCC(C)(C)C(=O)O)C(F)(F)CN2CC1=C(C(=O)OCC)[C@H](c2cccc(F)c2C)N=C(c2nccs2)N1 (single isomer, unassigned) [Compound 157] | 9.10
* COC(=O)C1=C(CN2CC(F)(F)[C@@H]3[C@H]2CN(C)N3CCC(C)(C)C(=O)O)NC(c2nccs2)=N[C@H]1c1ccc(F)c(F)c1C (single isomer, unassigned) [Compound 101] | 7.60
* COC(=O)C1=C(CN2CC(F)(F)C3CN(CC(C)(C)C(=O)O)CC32)NC(c2nccs2)=N[C@H]1c1cccc(F)c1C (single isomer, unassigned) [Compound 19B] | 7.31
